- Test system: KMS-18 T21A mutant cell line
- Protocol Details: XTT viability assay of KMS-18 multiple myeloma cell line with spontaneous PSMB5 T21A substitution
- Assay type: cell-based, human
- Test Parameters: KMS-18 T21A mutant cells, heterozygous

{"Compound": "COC[C@H](NC(=O)c1cnc(C)s1)C(=O)N[C@@H](COC)C(=O)N[C@@H](Cc1ccccc1)C(=O)[C@@]1(C)CO1 [oprozomib]", "response in XTT viability assay": "sensitive"}
{"Compound": "CC(C)C[C@H](NC(=O)[C@H](Cc1ccccc1)NC(=O)c1cnccn1)B(O)O [bortezomib]", "response in XTT viability assay": "resistance"}
{"Compound": "CC(C)C[C@H](NC(=O)CNC(=O)c1cc(Cl)ccc1Cl)B(O)O [ixazomib]", "response in XTT viability assay": "resistance"}
{"Compound": "CC(C)C[C@H](NC(=O)[C@H](CCc1ccccc1)NC(=O)CN1CCOCC1)C(=O)N[C@@H](Cc1ccccc1)C(=O)N[C@@H](CC(C)C)C(=O)[C@@]1(C)CO1 [carfilzomib]", "response in XTT viability assay": "sensitive"}

Reference source: patent US20220145396A1
